system: FBXW7; assay: 3' UTR reporter interaction score (median-centred robust z-score of log2 firefly/Renilla activity); higher = less repression of the 3' UTR reporter; details: HEK293T; 48 h
observable: 3' UTR reporter interaction score

Use the examples below as a reference point.
CUAAUAGUAUCUACCACAAUAAA
0.465
CAAAAACCACAGUUUCUUUUGC
-0.0284
GUCCAGUUUUCCCAGGAAUCCCUU
-0.33
AGGCGGGGCGCCGCGGGACCGC
-0.475
UCAGUGCACUACAGAACUUUGU
0.473
UUGCAUAUGUAGGAUGUCCCAU
1.23
UAAACGUGGAUGUACUUGCUUU
0.998
AAUAUAACACAGAUGGCCUGU
0.647

Turning to the following sequence.
// 3' UTR reporter interaction score value for ACUUGGGCACUGAAACAAUGUCC : -0.0493

----------
Recorded 3' UTR reporter interaction score by entry
tested on: MYT1L; assay: 3' UTR reporter interaction score (median-centred robust z-score of log2 firefly/Renilla activity); higher = less repression of the 3' UTR reporter; conditions: HEK293T; 48 h
Number only, please.

AGACCAUGGGUUCUCAUUGU
0.673

// 3' UTR reporter interaction score value for CUCUUGAGGGAAGCACUUUCUGUU : 0.407

// 3' UTR reporter interaction score value for AGCAGCAUUGUACAGGGCUAUGA : -1.07

// 3' UTR reporter interaction score value for UCGGAUCCGUCUGAGCUUGGCU : -1.06

// 3' UTR reporter interaction score value for CUGCAAAGGGAAGCCCUUUCU : 0.529

// 3' UTR reporter interaction score value for UACAGUAUAGAUGAUGUACUAG : 0.926

// 3' UTR reporter interaction score value for UGCUGACUCCUAGUCCAGGGC : 0.333

// 3' UTR reporter interaction score value for UUGCAUAGUCACAAAAGUGA : -0.0799

// 3' UTR reporter interaction score value for AAUGACACGAUCACUCCCGUUGA : -0.645

// 3' UTR reporter interaction score value for UGAGUUGGCCAUCUGAGUGAG : 2.61

// 3' UTR reporter interaction score value for AAGCUGCCAGUUGAAGAACUGU : -1.31

// 3' UTR reporter interaction score value for GACCUGGACAUGUUUGUGCCCAGU : 0.464

// 3' UTR reporter interaction score value for GUUCAAAUCCAGAUCUAUAAC : -0.972

// 3' UTR reporter interaction score value for CAUCUGGAGGUAAGAAGCACUUU : -1.9

// 3' UTR reporter interaction score value for UGAGAUGAAGCACUGUAGCUCA : -0.193

// 3' UTR reporter interaction score value for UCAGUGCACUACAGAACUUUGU : 1.34

// 3' UTR reporter interaction score value for AAAGUGCUUCUCUUUGGUGGGUU : -0.567

// 3' UTR reporter interaction score value for UGGUCUAGGAUUGUUGGAGGAG : -1.45

// 3' UTR reporter interaction score value for UCCCUGAGACCCUAACUUGUGA : 0.796

// 3' UTR reporter interaction score value for ACUUGUAUGCUAGCUCAGGUAG : 0.252

// 3' UTR reporter interaction score value for CACACACUGCAAUUACUUUUGC : 0.0502
